Biological target: Rac GTPase-activating protein 1 (Homo sapiens, UniProt Q9H0H5)
Sequence (Q9H0H5 whole entry): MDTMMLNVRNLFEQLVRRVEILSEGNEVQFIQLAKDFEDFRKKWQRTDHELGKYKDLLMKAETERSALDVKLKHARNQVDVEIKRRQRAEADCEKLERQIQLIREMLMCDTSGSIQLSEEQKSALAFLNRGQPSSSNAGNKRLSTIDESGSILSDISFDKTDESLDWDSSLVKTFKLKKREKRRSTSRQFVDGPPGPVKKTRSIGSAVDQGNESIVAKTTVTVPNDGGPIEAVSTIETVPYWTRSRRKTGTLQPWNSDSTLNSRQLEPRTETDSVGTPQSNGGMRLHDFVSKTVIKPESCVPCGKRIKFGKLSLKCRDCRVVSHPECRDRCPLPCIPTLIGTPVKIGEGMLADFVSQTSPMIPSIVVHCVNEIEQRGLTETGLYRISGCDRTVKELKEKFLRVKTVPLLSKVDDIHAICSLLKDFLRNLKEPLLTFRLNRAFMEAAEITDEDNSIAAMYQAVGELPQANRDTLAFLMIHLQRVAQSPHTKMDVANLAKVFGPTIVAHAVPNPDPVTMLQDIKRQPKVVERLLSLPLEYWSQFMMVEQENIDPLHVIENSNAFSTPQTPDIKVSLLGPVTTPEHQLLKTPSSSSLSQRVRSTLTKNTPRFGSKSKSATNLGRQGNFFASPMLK
Experiment: MgcRacGAP GTPase-activating activity inhibitors, confirmation, biochemical, ADP Hunter fluorescence, primary and confirmatory (AID 624330)
Format: functional
The source made the active and inactive calls.
attribute.measured: IC50

{"compound": "CC(=O)c1c(Nc2ccc3c(c2)OCCO3)oc(C)cc1=O", "IC50": "54 µM (active)"}
{"compound": "O=C(NN=Cc1ccc(O)cc1)c1ccccc1NS(=O)(=O)c1cccs1", "IC50": "74.4 µM (active)"}
{"compound": "CC(C)(c1ccccc1)c1ccc(OCC(O)CNC2CCN(Cc3ccccc3)CC2)cc1 (centres undefined)", "IC50": "50.6 µM (active)"}
{"compound": "COc1ccc(N2CCN(C(C)C(=O)N3CCCC3)CC2)cc1 (centres undefined)", "IC50": "72.4 µM (active)"}
{"compound": "CCOc1cccc2cc(C(=O)Oc3ccc(OC)cc3)c(=O)oc12", "IC50": "52.5 µM (active)"}

Now let's try a different one.
query: # query: IC50 of entry O=C(Nc1ccc(O)cc1)C1CC=CCC1 (centres undefined)
result: 40.7 µM (active)

----------
IC50 overview
molecular target: Corticotropin-releasing factor receptor 2/Corticotropin-releasing factor-binding protein (Homo sapiens, UniProt P24387+Q13324); assay: Dose Response confirmation of uHTS hits for small molecule antagonists of the CRF-binding protein and CRF-R2 receptor complex.; assay type: functional; conditions: read-out: IC50_Mean
Sequence (Q13324 whole entry): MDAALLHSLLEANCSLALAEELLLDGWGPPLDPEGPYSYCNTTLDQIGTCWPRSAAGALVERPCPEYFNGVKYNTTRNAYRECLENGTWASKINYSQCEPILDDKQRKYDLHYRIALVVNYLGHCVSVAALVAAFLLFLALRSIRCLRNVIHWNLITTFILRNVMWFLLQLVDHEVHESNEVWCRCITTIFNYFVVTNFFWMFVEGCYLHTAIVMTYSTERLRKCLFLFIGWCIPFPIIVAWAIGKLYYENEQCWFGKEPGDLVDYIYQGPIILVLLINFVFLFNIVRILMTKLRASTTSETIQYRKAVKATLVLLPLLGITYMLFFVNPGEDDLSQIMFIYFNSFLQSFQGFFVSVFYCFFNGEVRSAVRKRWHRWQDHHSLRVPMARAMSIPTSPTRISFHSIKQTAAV
Sequence (P24387 whole entry): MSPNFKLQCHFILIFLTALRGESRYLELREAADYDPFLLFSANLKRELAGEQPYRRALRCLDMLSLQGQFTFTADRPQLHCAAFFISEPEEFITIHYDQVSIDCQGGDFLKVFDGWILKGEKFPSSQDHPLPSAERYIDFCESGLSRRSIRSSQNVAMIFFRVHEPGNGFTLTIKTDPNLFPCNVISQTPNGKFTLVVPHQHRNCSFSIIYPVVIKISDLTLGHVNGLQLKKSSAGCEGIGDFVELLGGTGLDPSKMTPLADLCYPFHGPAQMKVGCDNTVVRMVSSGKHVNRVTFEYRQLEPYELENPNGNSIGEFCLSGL
Active and inactive are the calls of the source.

Check out these entries, answers already filled in.
{"compound": "Cc1cc2c(=Cc3ccc(N(C)C)cc3)c3ccccc3n2[n+]1C", "IC50": "> 47.1 µM (inactive)"}
{"compound": "O=C(NC(Cc1ccccc1)c1nc2ccccc2[nH]1)c1ccc(Cl)c([N+](=O)[O-])c1 (stereo not given)", "IC50": "11.6 µM (active)"}
{"compound": "CNC(=O)CN(C1CCCCC1)S(=O)(=O)c1ccc(F)cc1", "IC50": "> 47.1 µM (inactive)"}
{"compound": "COc1ccccc1-n1c(=S)sc2c(=O)n(Cc3ccco3)c(SC)nc21", "IC50": "> 47.1 µM (inactive)"}

query: Entry CN(C)c1ccc(C(=O)N/N=C/C23CC[C@@H](O)CC2(O)CC[C@@H]2[C@@H]3CCC3(C)C(C4=CC(=O)OC4)CCC23O)cc1 (stereo not given in full) has what IC50?
result: > 47.1 µM (inactive)
